Collected TGI values appear next to each entry.
# Test system: HCT-116 colon
# method-summary: NCI tumour cell line growth inhibition, 48 h

{"compound": "COc1cc(O)c2c(=O)c(OC)c(-c3ccc(OC)c(OC)c3)oc2c1.[Co]", "TGI": "> 100 µM"}

Cc1ccc2nc(NC(=O)C(=O)C3C(=O)NC(=S)NC3=O)sc2c1 has a reported TGI of > 100 µM

Cc1c(C(=O)O)n(-c2ccc(Cl)cc2)c2ncnc(N)c12 has a reported TGI of 47.7 µM

O=C(O)CCCn1c(SCc2c(Cl)cccc2Cl)nc2ccsc2c1=O has a reported TGI of > 100 µM

FC(F)(F)c1cccc(Nc2nc3ccccc3nc2Nc2cccc(C(F)(F)F)c2)c1 has a reported TGI of 1.52 µM

O=c1[nH]nc(Cc2ccccc2)n1/N=C\CC/C=N\n1c(Cc2ccccc2)n[nH]c1=O has a reported TGI of 48.7 µM

CCCCCCC1NN(C(C)=O)C(CCCCCC)NN1C(C)=O (centres undefined) has a reported TGI of > 100 µM

CCCCCCc1nn2c(-c3ccncc3)nnc2s1 has a reported TGI of > 10 µM

C=CCC12CC(=O)CCC1CC(=O)C2 (centres undefined) has a reported TGI of > 100 µM

----------
# Test system: SNB-75 CNS
# method-summary: NCI tumour cell line growth inhibition, 48 h
measured-metric: TGI

{"compound": "COc1ccc(C=Nc2c(O)ccc3ccccc23)cc1OC", "study-system": "SNB-75 CNS", "result": "> 100 µM"}
{"compound": "c1ccc(NNN2NC(c3ccccc3)C2c2ccccc2)cc1 (configuration not stated)", "study-system": "SNB-75 CNS", "result": "> 100 µM"}
{"compound": "CCCNC(=O)C(C)(Cl)C(=O)c1ccccc1O (configuration not stated)", "study-system": "SNB-75 CNS", "result": "> 100 µM"}
{"compound": "COc1cccc(NC(=O)CC(=O)N2NC(c3ccccc3)C(N=Nc3cccc(C(=O)O)c3)C2=O)c1 (configuration not stated)", "study-system": "SNB-75 CNS", "result": "> 100 µM"}
{"compound": "COC(=O)C1CC2C=CC1N(C(=O)OCc1ccccc1)C2 (configuration not stated)", "study-system": "SNB-75 CNS", "result": "> 100 µM"}
{"compound": "Cc1c2cnccc2c(C)c2c1c1cc(CO)ccc1n2C", "study-system": "SNB-75 CNS", "result": "1.7 µM"}

O=c1c2cccnc2[nH]c2ccc3[nH]ncc3c12 has a reported TGI of > 10 µM

----------
Collected TGI values appear next to each entry.
# System: MDA-MB-435
# method-summary: NCI tumour cell line growth inhibition, 48 h

Consider the worked cases shown below.
{"compound": "COc1ccc(-c2cc(-c3ccc(Nc4ccnc5cc(C(F)(F)F)ccc45)cc3)nc(N)c2C#N)cc1", "TGI": "> 100 µM"}
{"compound": "CC1(CO)OC(n2cnc3cncnc32)CC1O (configuration not stated)", "TGI": "> 100 µM"}
{"compound": "CNc1nc(SC)nc2c1c(N)nn2C", "TGI": "> 100 µM"}

Readout TGI for COC(=O)C12CCC(C(F)(F)C1=O)C2(C)C (configuration not stated) , test system MDA-MB-435, was > 100 µM

Readout TGI for O=C1C=CC(=O)c2ccc(=O)ccc21 , test system MDA-MB-435, was 46 µM

Readout TGI for Cc1ccc(/C=C2\N=C(N3CCOCC3)NC2=O)cc1 , test system MDA-MB-435, was > 100 µM

Readout TGI for COc1ccc(OC)c(N2C(=O)/C(=C\c3ccccc3)SC2c2cc(OC)c(OC)c(OC)c2)c1 (configuration not stated) , test system MDA-MB-435, was > 75 µM

Readout TGI for Nc1nc(N)c2cc(CNc3ccc(C(=O)NC(CC(=O)O)C(=O)O)cc3)ccc2n1 (configuration not stated) , test system MDA-MB-435, was > 100 µM
